Measured values drawn from PubChem BioAssay (Tox21) for this set.

test: qHTS assay to identify small molecule antagonists of the peroxisome proliferator-activated receptor delta (PPARd) signaling pathway - cell viability counter screen (AID 743213); conditions: PPARd-bla HEK293H viability, CellTiter-Glo luminescence, 17 h; series mostly up to 62 µM; also: % is scaled to controls: 0 for no effect and ±100 for the full control effect; nearly all actives have a fitted effect of over 50% in size
Records with an inconclusive call do not appear. Activity calls are given as the source filed them. Calls follow the shape of the dose curve; as a rule, active = well fitted cell-killing curve with a large enough effect in the repeat runs; inconclusive = weak or mixed curves; inactive = no such curve, though single readings can be large or run the other way.
readoutKind: viability change, negative = cytotoxic

These solved cases illustrate the format of a correct answer.
molecule=COc1cc2c(cc1OC)C(=O)CC2 readoutkind="viability change, negative = cytotoxic" reportedmeasurement=inactive
molecule="CC(COC(C)(C)C)OCCCO (configuration not stated)" readoutkind="viability change, negative = cytotoxic" reportedmeasurement=inactive
molecule="CC(C)CC(C)CC(C)CC(C)COC(=O)c1ccccc1C(=O)OCC(C)CC(C)CC(C)CC(C)C (configuration not stated)" readoutkind="viability change, negative = cytotoxic" reportedmeasurement=inactive
molecule=Oc1cn2c(n1)Nc1ccc(Cl)c(Cl)c1C2 readoutkind="viability change, negative = cytotoxic" reportedmeasurement=inactive
molecule=Cc1cc(Cl)c(C)cc1Cl readoutkind="viability change, negative = cytotoxic" reportedmeasurement=inactive

Item Cc1ccc2ccc(Cl)cc2n1 has what recorded viability change, negative = cytotoxic? inactive

Requested read-out: viability change, negative = cytotoxic. Entry: O=C(NCCN1CCOCC1)c1ccc(Cl)cc1 inactive

---

Assay: qHTS assay to test for compound auto fluorescence at 535 nm (green) in HepG2 cells (AID 720675); also: % is scaled to controls: 0 for no effect and ±100 for the full control effect
Details: green autofluorescence 485/535 nm, 1 h; series mostly up to 91.3 µM
Description: National Center for Advancing Translational Sciences [NCATS] NIH Chemical Genomics Center [NCGC] U.S. Environmental Protection Agency [EPA] National Institutes of Environmental Health Sciences [NIEHS] National Toxicology Program [NTP] U.S. Food and Drug Administration [FDA] Compound auto fluorescence often interferes with screening of the compound library against various biological targets and signaling pathways. Some of these compounds may have fluorophoric properties. […]
Activity calls are given as the source filed them. Calls come from the whole dose curve; as a rule, active = well fitted curve in the direction sought with a large enough effect in the repeat runs; inconclusive = weak or mixed curves; inactive = flat fitted curve, though single readings scatter.
readoutKind: fluorescence, % of fluorescein control

Solved cases below.
molecule=OC[C@H](Cc1cccc(O)c1)[C@H](CO)Cc1cccc(O)c1 reportedmeasurement=inactive
molecule=CN(C)C(=O)CNC(=O)Cc1ccccc1 reportedmeasurement=inactive
molecule=CC(C)c1ccc2cc(C(C)C)ccc2c1 reportedmeasurement=inactive
molecule="COC(=O)CCc1ccc(OCC(O)CNC(C)C)cc1 (configuration not stated)" reportedmeasurement=inactive
molecule="C#CC(C)N(C)C(=O)Nc1ccc(Cl)cc1 (configuration not stated)" reportedmeasurement=inactive
molecule=CO[C@@H]1[C@@H](OC(N)=O)[C@@H](O)[C@H](Oc2ccc3c(O)c(NC(=O)c4ccc(O)c(CC=C(C)C)c4)c(=O)oc3c2C)OC1(C)C reportedmeasurement="-0.0594% [at 18.6 µM] (inactive)"

So what's the measured fluorescence, % of fluorescein control for this one? O=C(Nc1ccc(Cl)c(Cl)c1)C1CC1 inactive

Can you look up the measured fluorescence, % of fluorescein control of CCCCCCCC/C=C\CCCCCCCC(=O)OCCCC for me? -0.0204% [at 18.6 µM] (inactive)

---

Biological target: Cytochrome P450 1A2 (Homo sapiens)
Test: Cytochrome P450 Family 1 Subfamily A Member 2 (CYP1A2) small molecule antagonists: luciferase reporter qHTS assay (AID 1671199); also: nearly all actives have a fitted effect of over 50% in size
Details: P450-Glo CYP1A2 enzyme, luciferin luminescence, 1 h; series mostly up to 53 µM
Text: National Center for Advancing Translational Sciences [NCATS] U.S. Environmental Protection Agency [EPA] National Institutes of Environmental Health Sciences [NIEHS] National Toxicology Program [NTP] U.S. Food and Drug Administration [FDA] Cytochrome P450 (CYP) enzymes are membrane-bound hemeproteins that play a key role in metabolism of drugs and xenobiotics. […] The luciferin products formed are detected with a luciferin detection reagent, and the amount of light produced is proportional to CYP activity. […]
Results filed as inconclusive are left out. Active and inactive are the calls of the source. Calls follow the shape of the dose curve; as a rule, active = well fitted inhibition curve with a large enough effect in the repeat runs; inconclusive = weak or mixed curves; inactive = no such curve, though single readings can be large or run the other way.
Classes to choose from: t for active, f for inactive

compound="CC(COC(C)(C)C)OCCCO (configuration not stated)" classlabel=f
compound="CC1(CO)CN(c2ccccc2)NC1=O (configuration not stated)" classlabel=t
compound=O=C(O)c1cc(Cl)cc([N+](=O)[O-])c1Cl classlabel=t
compound="C#CC(C)N(C)C(=O)Nc1ccc(Cl)cc1 (configuration not stated)" classlabel=t
compound=CC(C)(C)c1nnc(NS(=O)(=O)c2ccc(N)cc2)s1 classlabel=f

Could you kindly confirm the outcome this assay logged for CCCOC(OCCC)OCCC ? f

Query: recorded result category for Cc1ccc2ccc(Cl)cc2n1 in this test t

How was CCCCCCCCSCC classified in this test? f

// return assay outcome for CN(C)C(=O)CNC(=O)Cc1ccccc1 f

Per the assay record, what outcome was assigned to Cc1cc2cc3c(C)cc(=O)oc3c(C)c2o1 ? t

Give the logged outcome of this assay for the following compound: O=S(=O)(O)c1ccc2cc(O)c(S(=O)(=O)O)cc2c1 f

// param item: CCCCC(CC)COCCO (configuration not stated) ; yields the recorded call t

Test call for this compound, please: CCN1CCc2nc(N)oc2CC1 f

# lookup: test call for C[C@H](CCC(=O)O)[C@H]1CC[C@H]2[C@@H]3C(=O)C[C@@H]4CC(=O)CC[C@]4(C)[C@H]3CC(=O)[C@]12C f

So what was the verdict on COc1ccc2c(c1)C(=O)N(CCc1ccc(S(=O)(=O)NC(=O)NC3CCCCC3)cc1)C(=O)C2(C)C in this test? f
